biological target: CNOT7 (Homo sapiens, UniProt Q9UIV1); construct: biotin (biotinylated); purchased Ichor Life Sciences; assay: Binding of compounds to CNOT7 by surface plasmon resonance (SPR); settings: Table 6; dissociation constant for CNOT7 by SPR
Sequence (Q9UIV1 whole entry): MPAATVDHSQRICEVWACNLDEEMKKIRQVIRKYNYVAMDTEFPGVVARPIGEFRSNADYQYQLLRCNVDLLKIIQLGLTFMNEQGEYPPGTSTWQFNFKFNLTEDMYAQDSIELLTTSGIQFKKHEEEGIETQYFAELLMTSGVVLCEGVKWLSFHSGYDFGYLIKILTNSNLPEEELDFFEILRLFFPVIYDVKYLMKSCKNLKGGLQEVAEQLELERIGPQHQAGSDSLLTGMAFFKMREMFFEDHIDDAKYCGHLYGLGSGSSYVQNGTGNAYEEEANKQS
PARAMETER: Kd

1. COc1ccc([C@@H](C)NC(=O)CSc2nc(=O)[nH]cc2Cl)cc1: 1000 to 25000 nM
2. COc1ccc2c(c1)CCN(C(=O)CSc1nc(=O)[nH]cc1C)[C@@H]2C: 100 to 1000 nM
3. Cc1c[nH]c(=O)nc1SCC(=O)N[C@@H](C)c1ccc2c(c1)CC(=O)N2: 1000 to 25000 nM
4. COc1c(F)cc([C@@H](C)NC(=O)CSc2nc(=O)[nH]cc2Cl)cc1F: 1000 to 25000 nM
